Source listed as patent US20210047324A1.

test: Oral pharmacokinetics in Sprague Dawley rats (plasma, brain, CSF); type: in vivo; conditions: Sprague-Dawley, rat, plasma, po, 10 mg/kg, per os, 10 mg/kg, plasma, read-out: Cmax
MEASUREMENT LABEL: Cmax (ng/mL)

Sample answers from the record:
CC(=O)N1CCCC12CC=CCNC2=O (single isomer, unassigned) | 9200
CC(C)C(=O)N1CCCC12CC=CCNC2=O (single isomer, unassigned) | 5300

A. O=C1NCCCC[C@]12CCCN2 [AU-1, (S)-1,7-diazaspiro[4.6]undecan-6-one]
B. CC(C)CN1CCCC12CC=CCNC2=O (single isomer, unassigned)
# argmax over Cmax for candidates A and B API: response body contains the label of the selected item. A
(A: 2440 ng/mL, B: 132 ng/mL)
